The measured values listed here are drawn from patent US11213516B2.

- Procedure Text: Plasma concentration after intravaginal administration of vaginal ring
- Type: in vivo, Cynomolgus monkeys
- Condition Context: female, cynomolgus monkey, plasma, other: intravaginal (vaginal ring), 40 mg, ring 40 mg free base; Phase 1 Group 1; 10 d; group mean; read-out: Plasma concentration of Pritelivir free base, Mean
Quantity: concentration at 10 d (ng/mL)

>  <Compound>
Cc1nc(N(C)C(=O)Cc2ccc(-c3ccccn3)cc2)sc1S(N)(=O)=O [Pritelivir free base]

>  <Quantity>
concentration at 10 d

>  <Value Units>
ng/mL

>  <Measured>
3.36

$$$$

###

- Procedure Text: Plasma concentration after intravaginal administration of vaginal ring
- Format: in vivo, Cynomolgus monkeys
- Condition Context: female, cynomolgus monkey, plasma, other: intravaginal (vaginal ring), 40 mg, ring 40 mg free base; Phase 1 Group 1; 28 d; group mean; read-out: Plasma concentration of Pritelivir free base, Mean

>  <Compound>
Cc1nc(N(C)C(=O)Cc2ccc(-c3ccccn3)cc2)sc1S(N)(=O)=O [Pritelivir free base]

>  <Value Units>
ng/mL

>  <concentration at 28 d>
2.79

$$$$
